System: HIV-1 with HIV-1AD8 Env
Assay: microbe, parasite or virus in culture
Format: cell-based
Conditions: Human immunodeficiency virus 1; Cf2Th-CD4/CCR5 target cells, 48 hours, luciferase; means and standard errors of four experiments; read-out: 50% inhibitory concentration (IC50), AD8
Would you mind telling me the reported IC50 of each entry?

Asked: Give IC50; test system HIV-1 with HIV-1AD8 Env; molecule COc1ccnc2[nH]cc(C(=O)C(=O)N3CCN(C(=O)c4ccccc4)C[C@H]3C)c12 [BMS-806, reference compound]
Given back: 0.4 nM

Asked: Look up and report measured IC50 (HIV-1 with HIV-1AD8 Env) for the following molecule: O=C(Nc1cccc2c(C(=O)C(=O)N3CCN(C(=O)c4ccccc4)CC3)c[nH]c12)c1ccccc1
Given back: 2.4 nM

Asked: Would you please give the reported IC50 of COc1ccc(-c2ccc(CNC(=O)c3ccccc3)o2)c2[nH]cc(C(=O)C(=O)N3CCN(C(=O)c4ccccc4)CC3)c12 with HIV-1 with HIV-1AD8 Env?
Given back: 0.36 nM

Asked: Please report the measured IC50 for O=C(Nc1cccc2c(C(=O)C(=O)N3CCN(C(=O)c4ccccc4)CC3)c[nH]c12)c1ccc(C2(C(F)(F)F)N=N2)cc1 tested on HIV-1 with HIV-1AD8 Env.
Given back: 0.06 nM

Asked: State, for HIV-1 with HIV-1AD8 Env, measured IC50 of the molecule listed here: COc1ccc(-c2ccc(CNC(=O)c3ccc(C4(C(F)(F)F)N=N4)cc3)o2)c2[nH]cc(C(=O)C(=O)N3CCN(C(=O)c4ccccc4)CC3)c12
Given back: 0.2 nM

// below: IC50 requested for another molecule
Asked: Check HIV-1 with HIV-1AD8 Env data and give IC50 for COc1ccc(-c2ccc(CNC(=O)c3c(F)c(F)c(N=[N+]=[N-])c(F)c3F)o2)c2[nH]cc(C(=O)C(=O)N3CCN(C(=O)c4ccccc4)CC3)c12 .
Given back: 2.8 nM

---

Please respond with reported pIC50 for every item in the list.
Test system: HIV-1 with HIV-1JR-FL Env
Assay: microbe, parasite or virus in culture
Assay type: cell-based
Conditions: Human immunodeficiency virus 1; Cf2Th-CD4/CCR5 target cells, 48 hours, luciferase; means and standard errors of four experiments; read-out: 50% inhibitory concentration (IC50), JR-FL
Answers are plain numbers, as −log10 of the molar value.

In the examples that follow, each entry is paired with its recorded pIC50.
Asked: Complete the entry with pIC50 for COc1ccc(-c2ccc(CNC(=O)c3ccc(C4(C(F)(F)F)N=N4)cc3)o2)c2[nH]cc(C(=O)C(=O)N3CCN(C(=O)c4ccccc4)CC3)c12
Given back: 8.80

Asked: Provide measured pIC50 value, entry: COc1ccnc2[nH]cc(C(=O)C(=O)N3CCN(C(=O)c4ccccc4)C[C@H]3C)c12 [BMS-806, reference compound]
Given back: 8.80

Report pIC50 for every entry below.
1. O=C(Nc1cccc2c(C(=O)C(=O)N3CCN(C(=O)c4ccccc4)CC3)c[nH]c12)c1ccc(C2(C(F)(F)F)N=N2)cc1
2. COc1ccc(-c2ccc(CNC(=O)c3ccccc3)o2)c2[nH]cc(C(=O)C(=O)N3CCN(C(=O)c4ccccc4)CC3)c12
3. COc1ccc(-c2ccc(CNC(=O)c3c(F)c(F)c(N=[N+]=[N-])c(F)c3F)o2)c2[nH]cc(C(=O)C(=O)N3CCN(C(=O)c4ccccc4)CC3)c12
4. O=C(Nc1cccc2c(C(=O)C(=O)N3CCN(C(=O)c4ccccc4)CC3)c[nH]c12)c1ccccc1

Given back:
[10.00, 9.22, 8.82, 9.05]
